I'd appreciate it if you could supply IC50 values for the items below.
# System: HIV-1 (NL4-3 strain)
# Experimental Details: Assay for Inhibition of HIV Replication (kinetic assay, MT4-gag-GFP reporter cell line; VIKING)
# Assay type: cell-based
# Assay Conditions: MT4-GFP cells infected with HIV-1 NL4-3; 0% normal human serum (NHS); read-out: VIKING IP50 (nM) with 0% NHS
Report the value in nM with no unit label.

## Task Which IC50 is reported for this molecule? CC12OCCCN1C(=O)c1c(O)c(=O)c(C(=O)NCc3ccc(F)cc3F)c3n1C2CC3 (stereo not shown) [Compound 134]
## Result 1.29

## Task Please do the same for COC1CC2C3OCCN3C(=O)c3c(O)c(=O)c(C(=O)NCc4ccc(F)cc4F)c1n32 (single isomer, unassigned) [Compound 74] as well.
## Result 2.19

## Task Please do the same for O=C(NCc1cccc(F)c1F)c1c2n3c(c(O)c1=O)C(=O)N1C4CCC(C4)OC1C3CC2 (stereo not shown) [Compound 167] as well.
## Result 3.78

## Task Please do the same for O=C(NCc1ccc(F)cc1F)c1c2n3c(c(O)c1=O)C(=O)N1CCOC1C3CC2 (single isomer, unassigned) [Compound 8] as well.
## Result 1

## Task Please do the same for C[C@H]1CN2C(=O)c3c(O)c(=O)c(C(=O)NCc4cccc(Cl)c4F)c4n3C(CC4)C2N1C (stereo partly shown) [Compound 103] as well.
## Result 1.45

## Task Please do the same for CCNC1CC2C3OCCCN3C(=O)c3c(O)c(=O)c(C(=O)NCc4ccc(F)cc4F)c1n32 (stereo not shown) [Compound 202] as well.
## Result 7.73

## Task Please do the same for CCNC1CC2C3OCCCN3C(=O)c3c(O)c(=O)c(C(=O)NCc4cccc(Cl)c4F)c1n32 (stereo not shown) [Compound 195] as well.
## Result 12.4
